biological target: Kras and SOS1 (biotin-tagged human Kras loaded with GDP, His-tagged human SOS1) (Homo sapiens, UniProt P01116, G12D); construct: made in house; host or cells: E. coli (stated for Kras only); assay: Protein-protein interaction inhibition between Kras and SOS1 (KrasGl2D-SOS PPI) using AlphaScreen; type: binding; details: AlphaScreen; biotin-tagged human Kras loaded with GDP, His-tagged human SOS1; read-out: KRAS G12D-SOS PPI IC50
Sequence (P01116 1-188 isoform P01116-2 G12D): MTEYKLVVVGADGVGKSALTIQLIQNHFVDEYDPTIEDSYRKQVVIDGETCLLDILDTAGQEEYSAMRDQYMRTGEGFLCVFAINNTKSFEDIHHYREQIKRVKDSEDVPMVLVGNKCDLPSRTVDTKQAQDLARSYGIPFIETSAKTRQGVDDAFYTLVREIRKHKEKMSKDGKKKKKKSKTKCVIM
Positions of bridges follow the written chain, without caps; N, C: chain ends. Non-standard residues stand in square brackets, D forms with d. Residues, ends and D or L forms follow the SMILES beside them. *: point of attachment. hPhe(3-Cl-4-CF3) = N[C@@H](CCc1ccc(C(F)(F)F)c(Cl)c1)C(=O)O; NMePhe(4-Cl) = CN[C@@H](Cc1ccc(Cl)cc1)C(=O)O; NMeAla(cPent) = CN[C@@H](CC1CCCC1)C(=O)O; Phe(3-I) = N[C@@H](Cc1cccc(I)c1)C(=O)O; NMeCha = CN[C@@H](CC1CCCCC1)C(=O)O; NMeChg = CN[C@H](C(=O)O)C1CCCCC1; hPhe = N[C@@H](CCc1ccccc1)C(=O)O; NMeD = CN[C@@H](CC(=O)O)C(=O)O; NMeL = CN[C@@H](CC(C)C)C(=O)O; NMeV = CN[C@H](C(=O)O)C(C)C; d(β3hA) = C[C@@H](N)CC(=O)O; NMeA = CN[C@@H](C)C(=O)O; NMeAib = CNC(C)(C)C(=O)O; Nle = CCCC[C@H](N)C(=O)O; Piperidide = C1CCN(*)CC1; Pra = C#CC[C@H](N)C(=O)O; Ac5c = NC1(C(=O)O)CCCC1; Aze = O=C(O)[C@@H]1CCN1; Sar = CNCC(=O)O
Exercise: for every item that follows, state its recorded IC50.
Answers are plain numbers, in nM.

A selection of reference data follows.
{"columns": ["compound", "IC50 / nM"],
 "data": [
  ["CC[C@H](C)[C@@H]1NC(=O)[C@H](CC(C)C)N(C)C(=O)C[C@@H](C(=O)N2CCCCC2)N(C)C(=O)[C@H](C2CCCCC2)N(C)C(=O)[C@H](C(C)C)NC(=O)[C@@H]2CCCN2C(=O)[C@H](CCc2ccc(C(F)(F)F)c(Cl)c2)NC(=O)CN(C)C(=O)[C@H](CC2CCCCC2)N(C)C(=O)CN(C)C(=O)CN(C)C1=O [Compound 1157] ([NMeL]I[Sar][Sar][NMeCha][Sar][hPhe(3-Cl-4-CF3)]PV[NMeChg][NMeD]-Piperidide; lactam N-11)", 1.6],
  ["CC[C@H](C)[C@@H]1NC(=O)[C@H](CC(C)C)N(C)C(=O)C[C@@H](C(=O)N2CCCCC2)N(C)C(=O)[C@H](C(C)C)N(C)C(=O)C2(CCCC2)NC(=O)[C@@H]2CCCN2C(=O)[C@H](CCc2ccccc2)NC(=O)CN(C)C(=O)[C@H](CC2CCCCC2)N(C)C(=O)CN(C)C(=O)CN(C)C1=O [Compound 265] ([NMeL]I[Sar][Sar][NMeCha][Sar][hPhe]P[Ac5c][NMeV][NMeD]-Piperidide; lactam N-11)", 280],
  ["CC[C@H](C)[C@@H]1NC(=O)[C@H](C)N(C)C(=O)C[C@@H](C)NC(=O)[C@H](C2CCCCC2)N(C)C(=O)C2(CCCC2)NC(=O)[C@@H]2CCCN2C(=O)[C@H](CCc2ccc(C(F)(F)F)c(Cl)c2)NC(=O)CN(C)C(=O)[C@H](CC2CCCCC2)N(C)C(=O)CN(C)C(=O)CN(C)C1=O [Compound 1688] (cyclo([Ac5c][NMeChg][d(β3hA)][NMeA]I[Sar][Sar][NMeCha][Sar][hPhe(3-Cl-4-CF3)]P))", 24],
  ["C#CC[C@@H]1NC(=O)[C@H](Cc2cccc(I)c2)NC(=O)CN(C)C(=O)[C@H](Cc2ccc(Cl)cc2)N(C)C(=O)[C@@H]2CCN2C(=O)[C@H](C)N(C)C(=O)[C@H]([C@@H](C)CC)NC(=O)[C@H](CC(C)C)N(C)C(=O)C[C@@H](C(=O)N2CCCCC2)N(C)C(=O)[C@H](CC(C)C)NC(=O)C(C)(C)N(C)C1=O [Compound 1428] ([NMeL]I[NMeA][Aze][NMePhe(4-Cl)][Sar][Phe(3-I)][Pra][NMeAib]L[NMeD]-Piperidide; lactam N-11)", 42]
]}

Turning now to a further record.
INPUT: What measured IC50 goes with CCCC[C@@H]1NC(=O)[C@H](Cc2cccc(I)c2)NC(=O)CN(C)C(=O)[C@H](CC2CCCC2)N(C)C(=O)[C@@H]2CCN2C(=O)[C@H](C)N(C)C(=O)[C@H]([C@@H](C)CC)NC(=O)[C@H](CC(C)C)N(C)C(=O)C[C@@H](C(=O)N2CCCCC2)N(C)C(=O)[C@H](CC(C)C)NC(=O)C(C)(C)N(C)C1=O [Compound 1432] ([NMeL]I[NMeA][Aze][NMeAla(cPent)][Sar][Phe(3-I)][Nle][NMeAib]L[NMeD]-Piperidide; lactam N-11) ?
OUTPUT: 260
